- Test system: DLBCL (GBC) cell lines
- assay.procedure: Combination of BO-1055 with PUH71, TT46, bortezomib, doxorubicin (Table 25)
- Assay type: cell-based
- condition.details: Homo sapiens, OCI-Ly8, OCI-LY8; read-out: IC50 single agent
assay.readout: IC50 (nM)
Write the number in nM without appending the unit.

Test system DLBCL (GBC) cell lines; read-out IC50; what value for CC(C)NCCCn1c(Sc2cc3c(cc2I)OCO3)nc2c(N)ncnc21 ?
814

----------
- Tested on: Ly8
- condition.details: human
assay.readout: IC50 (nM)
Write the number in nM without appending the unit.

So what does the record say about IC50 for CC(C)C[C@H](NC(=O)[C@H](Cc1ccccc1)NC(=O)c1cnccn1)B(O)O ?
78

----------
assay.readout: IC50

Test system SUDHL-4; read-out IC50; what value for CNC(=O)c1cc(Oc2ccc(NC(=O)Nc3ccc(Cl)c(C(F)(F)F)c3)cc2)ccn1 [SOR] ?
5.62 µM

----------
- assay.procedure: Pharmacokinetics, IV bolus 10 mg/kg
- Type: in vivo, Sprague-Dawley rats
- condition.details: male, Sprague-Dawley, rat, plasma, iv, 10 mg/kg, n=5
assay.readout: clearance

So what does the record say about clearance for CN(C)CCNC(=O)c1cccc(NC(=O)Nc2ccc(N(CCCl)CCCl)cc2)c1 ?
2.36 L/h/kg

----------
- Test system: H647
- Type: cell-based, human
Can you tell me pIC50 for the items I'm about to list?
To interpret pIC50, take it as minus log10 of a concentration measured in moles per litre.

So what does the record say about pIC50 for N.N.[Cl][Pt][Cl] [Cisplatin] ?
5.06

So what does the record say about pIC50 for N.N.O=C([O-])C1(C(=O)[O-])CCC1.[Pt+2] ?
4.59

----------
- assay.procedure: Plasma protein binding, equilibrium dialysis
- Assay type: in vitro ADME
- condition.details: rat plasma, 2 h, read-out: % bound (converted)
assay.readout: fraction unbound at 2 h, 20 μM
Give the figure only, with no unit attached.

So what does the record say about fraction unbound at 2 h, 20 μM for CN(C)CCNC(=O)c1cccc(NC(=O)Nc2ccc(N(CCCl)CCCl)cc2)c1 ?
0.0032

----------
- assay.procedure: Pharmacokinetics, single IV 1 mg/kg or oral 10 mg/kg
- Format: in vivo, Sprague Dawley rats
- condition.details: male, Sprague Dawley, plasma; IV 1 mg/kg, rat
assay.readout: C0 (ng/mL)
Write the number in ng/mL without appending the unit.

So what does the record say about C0 for CN(C)CCNC(=O)c1cccc(NC(=O)Nc2ccc(N(CCCl)CCCl)cc2)c1 ?
12000

----------
- assay.procedure: Pharmacokinetics, IV bolus 10 mg/kg
- Format: in vivo, Sprague-Dawley rats
- condition.details: male, Sprague-Dawley, plasma; IV 10 mg/kg, rat, n=5
assay.readout: AUC (ng·h/mL)
Write the number in ng·h/mL without appending the unit.

So what does the record say about AUC for CN(C)CCNC(=O)c1cccc(NC(=O)Nc2ccc(N(CCCl)CCCl)cc2)c1 [BO-1055, Ureidomustine] ?
4450

----------
- Tested on: H82
- assay.procedure: Cytotoxicity SCLC 72 hr alamar blue
- Type: cell-based, human
pIC50: −log10 of the molar value.
assay.readout: pIC50

So what does the record say about pIC50 for N.N.[Cl][Pt][Cl] [Cisplatin] ?
≤ 4.70

----------
Can you tell me IC50 for the items I'm about to list?
- Test system: Ly10
- condition.details: human
Write the number in nM without appending the unit.

So what does the record say about IC50 for COc1cccc2c1C(=O)c1c(O)c3c(c(O)c1C2=O)C[C@@](O)(C(=O)CO)C[C@@H]3O[C@H]1C[C@H](N)[C@H](O)[C@H](C)O1 [Doxorubicin] ?
84

So what does the record say about IC50 for CN(C)CCNC(=O)c1cccc(NC(=O)Nc2ccc(N(CCCl)CCCl)cc2)c1 [BO-1055, Ureidomustine] ?
120
